- Tested on: HBV
- RUN DESCRIPTION: Anti-HBV activity, HepG2.117 inducible HBV producing cell line (Tet-off), intracellular HBV DNA by realtime PCR
- Format: cell-based
- CONDITION SUMMARY: Hepatitis B virus, 72 h; HepG2.117 cells, 3 days of treatment, intracellular HBV DNA; read-out: HepG2 117 EC50
pEC50: −log10 of the molar value.

{"columns": ["COMPOUND SMILES", "MEASUREMENT QUALIFIER", "pEC50"],
 "data": [
  ["Cc1c(C(=O)C(=O)NC(C)(C)C)c(F)c(C(=O)Nc2ccc(F)c(C#N)c2)n1C", ">", 8.40],
  ["Cc1c(C(=O)C(=O)N[C@H](C)C(F)(F)F)c(Cl)c(C(=O)Nc2ccc(F)c(C#N)c2)n1C", "=", 8.52],
  ["COCC(C)(C)NC(=O)C(=O)c1cc(C(=O)Nc2ccc(F)c(C#N)c2)n(C)c1C", "=", 8.10],
  ["Cc1c(C(=O)C(=O)NC2(CO)CC2)cc(C(=O)Nc2ccc(F)c(C#N)c2)n1C", "=", 7.77]
]}

###

// values below are reported EC50
- Test system: HBV
- RUN DESCRIPTION: Anti-HBV activity, HepG2.117 inducible HBV producing cell line (Tet-off), intracellular HBV DNA by realtime PCR
- Format: cell-based
- CONDITION SUMMARY: Hepatitis B virus, 72 h; HepG2.117 cells, 3 days of treatment, intracellular HBV DNA; read-out: HepG2 117 EC50

{"columns": ["COMPOUND SMILES", "EC50"],
 "data": [
  ["Cn1cc(C(=O)C(=O)NC2(C)COC2)cc1C(=O)Nc1cccc(C(F)(F)F)c1", "> 1 µM"],
  ["C[C@@H](NC(=O)C(=O)c1cc(C(=O)Nc2ccc(F)c(C#N)c2)n(C)c1Br)C(F)(F)F", "> 1 µM"],
  ["Cc1c(C(=O)C(=O)NC2(C)CC(F)(F)C2)c(Cl)c(C(=O)Nc2ccc(F)c(C#N)c2)n1C", "< 0.004 µM"]
]}
